System: Haemophilus parasuis
Assay: in vitro susceptibility, MIC by mini broth dilution
Assay type: cell-based
readout.kind: MIC values, Haemophilus parasuis (ug/mi)
Numbers only, in ug/mi.

A selection of reference data follows.
* CC[C@H]1OC(=O)[C@H](C)[C@@H](O[C@H]2C[C@@](C)(OC)[C@](O)(CNCCNC)[C@H](C)O2)[C@H](C)[C@@H](O[C@@H]2O[C@H](C)C[C@H](N(C)C)[C@H]2O)[C@](C)(O)C[C@@H](C)NC[C@H](C)[C@@H](O)[C@]1(C)O | 0.5
* CC[C@H]1OC(=O)[C@H](C)[C@@H](O[C@H]2C[C@@](C)(OC)[C@](O)(CNCCCN3CCOCC3)[C@H](C)O2)[C@H](C)[C@@H](O[C@@H]2O[C@H](C)C[C@H](N(C)C)[C@H]2O)[C@](C)(O)C[C@@H](C)NC[C@H](C)[C@@H](O)[C@]1(C)O | 1
* CCCCNC[C@]1(O)[C@H](C)O[C@@H](O[C@H]2[C@H](C)[C@@H](O[C@@H]3O[C@H](C)C[C@H](N(C)C)[C@H]3O)[C@](C)(O)C[C@@H](C)N(CCC)C[C@H](C)[C@@H](O)[C@](C)(O)[C@@H](CC)OC(=O)[C@@H]2C)C[C@@]1(C)OC | 0.25

Response field MIC values, Haemophilus parasuis (Haemophilus parasuis) for item CCCN1C[C@H](C)[C@@H](O)[C@](C)(O)[C@@H](CC)OC(=O)[C@H](C)[C@@H](O[C@H]2C[C@@](C)(OC)[C@](O)(CNC(C)(C)C)[C@H](C)O2)[C@H](C)[C@@H](O[C@@H]2O[C@H](C)C[C@H](N(C)C)[C@H]2O)[C@](C)(O)C[C@H]1C : 0.25
